test: Single oral dose plasma pharmacokinetics and elimination of APAZA and metabolites in mice; assay type: in vivo, male CD-1 mice; settings: male, CD-1, mouse, in vivo, po
Measurement label: half-life (h)
The figure you give is taken to be in h; do not add the unit.

// recorded half-life for O=C(O)Cc1ccc(/N=N/c2ccc(O)c(C(=O)O)c2)cc1 [APAZA™] : 3.34

###

assay: Single oral dose plasma pharmacokinetics and elimination of APAZA and metabolites in mice; assay type: in vivo, male CD-1 mice; conditions: male, CD-1, mouse, in vivo, po
Measurement label: Cmax
Answer by giving the amount and then stating its unit.

Memo: O=C(O)Cc1ccc(/N=N/c2ccc(O)c(C(=O)O)c2)cc1 , reported Cmax: 5930 ng/mL

###

assay: Single oral dose pharmacokinetics of APAZA in dogs; format: in vivo, Beagle dogs; conditions: Beagle, dog, plasma; male dogs, single oral dose 1000 mg/kg; read-out: time to maximum plasma concentration (tmax)
Measurement label: Tmax (h)
Express your answer in h, writing the number without its unit.

So, O=C(O)Cc1ccc(/N=N/c2ccc(O)c(C(=O)O)c2)cc1 [APAZA™] ? Its Tmax was 15

###

assay: Single oral dose pharmacokinetics of APAZA in dogs; type: in vivo, Beagle dogs; conditions: Beagle, dog, plasma; male dogs, single oral dose 1000 mg/kg; read-out: area under the plasma concentration-time curve (AUC0-t)
Measurement label: AUC(0-t) (ng·h/mL)
Quick note: give the figure in ng·h/mL, leave out the unit.

Entry O=C(O)Cc1ccc(/N=N/c2ccc(O)c(C(=O)O)c2)cc1 ; AUC(0-t) = 95400

###

assay: Single oral dose plasma pharmacokinetics and elimination of APAZA and metabolites in mice; format: in vivo, male CD-1 mice; conditions: male, CD-1, mouse, in vivo, po
Measurement label: AUC(0-inf)
# do not omit the unit; it follows the number

Measured AUC(0-inf) of O=C(O)Cc1ccc(/N=N/c2ccc(O)c(C(=O)O)c2)cc1 : 7430 ng·h/mL

###

assay: Single oral dose pharmacokinetics of APAZA in dogs; format: in vivo, Beagle dogs; conditions: Beagle, dog, plasma; female dogs, single oral dose 1000 mg/kg; read-out: time to maximum plasma concentration (tmax)
Measurement label: Tmax (h)
Note: unit h is implicit; provide only the numeric part.

Short answer for O=C(O)Cc1ccc(/N=N/c2ccc(O)c(C(=O)O)c2)cc1 : Tmax was 24

###

experiment: Single oral dose pharmacokinetics of APAZA in dogs; type: in vivo, Beagle dogs; conditions: Beagle, dog, plasma; female dogs, single oral dose 1000 mg/kg; read-out: mean maximum plasma concentration (Cmax)
Measurement label: Cmax (ng/mL)
Return type: number; implicit unit ng/mL.

The recorded Cmax for entry O=C(O)Cc1ccc(/N=N/c2ccc(O)c(C(=O)O)c2)cc1 [APAZA™] equals 2640
